Experiment: folding stability dG unfold from chymotrypsin proteolysis; higher = more stable
Catalogue of folding stability dG unfold values
Write it as a number; the unit kcal/mol goes unstated.

Worked examples follow.
SAGGMPEVKIKVEITEIKVDKETGKTVTIRIKSVEITTADGRKYRVEKEIRIRPDGSIEVKVKVEELPSAGG [r13_917_TrROS_Hall]: 4.21
SAGMIKVEVVEKDEKTKEWKVVETKTIPVKPGEKPTVEELAKKLKEKGYEVRIEKTKDGTLKIYVIKKKSAG [r5_269_TrROS_Hall]: 4.08
SKWTIDIDITYYPEYGVITVTIRYPNSWEQARFDVRSFIHEAGMPIKLEDIEIEQVEGWYEITYTIRIPPSA [r9_164_TrROS]: 3.88
SAGGSAGGSAGLTLEVELPDGKPFPVEVLEVDPGEEDVVVIRVKVKVGDKEYEVTLVLDLSAGGSAGGSAGG [r17_536_TrMRF]: 1.76

Prompt line: Can you share its folding stability dG unfold? I mean this sequence: SAGGSAGGSDMTMTYIIPLPDYAIVISFKIEITEVEYNPENGKPVKFRFDIEIKIEVFPPGDLSAGGSAGGS [r12_809_TrROS]
Response line: 4.68

Prompt line: Need folding stability dG unfold of SAGGSAGGSMPTSSSSSLSSEAEVEALIEELKKKGAKEFTVDPGPGALTLTITYDDSTLTISSSAGGSAGGS [r12_846_JUSTAS] , thanks.
Response line: 1.38

Prompt line: Name the recorded folding stability dG unfold for SWTFPILIRFPFDDPEDLDKAREMAEDLVRYLAEEFGWPVKIDKVKYERNPENGWVWIRAEITVTPPDDVSA [r9_105_TrROS] .
Response line: 5.31

Prompt line: Reported folding stability dG unfold, sequence SAGGSAMLVFKITIKNPETNETIELEIEAETLEEAKEAIEKLIAELTGKEPTEIKIEVVEIKEEDLSAGGSA [r15_670_TrROS_Hall] : ____
Response line: 4.47

Prompt line: Look up folding stability dG unfold for this sequence: SAPWVYHVRIEYKGPDGEPVAEHTIMVKTPEALKEQIRKHFGLSPAQIKNIEVEPVIPAEEMNEMQEKGSAG [r14_852_TrROS]
Response line: 1.27

Prompt line: Look up folding stability dG unfold: SAGGSAGGSAGMPKVEAVDISYSADPNSKSYTITIKSPDGEPIVLTLNSPSEIENLELVLSAGGSAGGSAGG [r11_711_JUSTAS]
Response line: 1.34

Prompt line: Entry SAGGEEVVEEPPPPEVEVIEIRDAETDRTVTLVYNKDTGKLFLFDEDTGLVYEFDVDGRLVRVERLPPSAGG [r13_101_TrROS_Hall] : reported folding stability dG unfold = ?
Response line: 4.48

Prompt line: // query folding stability dG unfold value for entry SAGGSAGGSAGGSEVEVTTRPDGSIVARVRLPDGGVLTLVAEVGPDGSVVVTEASLSPESAGGSAGGSAGGS [r4_246_TrMRF]
Response line: 1.94

###

Assay: folding stability dG unfold from chymotrypsin proteolysis; higher = more stable
Each entry falls in a class defined on folding stability dG unfold; the bands are I (below 0.2 kcal/mol), II (0.2 kcal/mol to below 3 kcal/mol), III (3 kcal/mol or more)

Examples from the recorded data:
SAGGKTYKIKVTVEVKNENGETEKKEYVIEVKENKTPEEIAEELKKKLGVEKVEIVDPKTGKKYTIELSAGG [r13_663_TrROS_Hall]: III
SAGGSALDPDDLEKVTIEFMFYNPNGNLLYEMTLEIYPDDGVIKMEHKQRRPGEPQKVTMEFPFDPSAGGSA [r15_278_TrROS]: II
SAGGSAGGSAGGSATVTTTTTSGATITPPALTELPSGYVAVVTPTGDTLNVVIAPKALLSAGGSAGGSAGGS [r4_279_JUSTAS]: II

Prompt line: Which class does SAGGSAGGSMRTITYEFPPGTTKEEVIEKVKELAKKEGLPIEKIESITEDPETGTYTVTVVVKSAGGSAGGS [r12_131_JUSTAS] fall in?
Response line: III

Prompt line: Please indicate the class for SAGGSAGGSMYRVRIKVRNRETGEWLEIELEVPEGVTEEELKAALRELFPDAEIVDIEIEKLPSAGGSAGGS [r12_738_TrROS_Hall] based on its folding stability dG unfold.
Response line: III

###

Test: folding stability dG unfold from trypsin proteolysis; higher = more stable
Kindly return true if reported folding stability dG unfold is no lower than 2 kcal/mol; return false if it is lower.

SAGGSAGGSAPLPPLTPEQVKALVEELKKKGYKVKKVTVVEVNGELYVFVEVDGKLYRIKVSAGGSAGGSAG [r3_395_TrROS_Hall]: true
SAGGSAGGSAGGMPPFVELEFVGEFKVNGEKVLVLRLPDGSIRIVNLKTGETITVPASLLSAGGSAGGSAGG [r7_28_JUSTAS]: true

Prompt line: Hi team, for SAGGMKEIAKALGIKPEDVKIEEEEIEVNGKKVKKIKITVKDKKTKKEYKIELTIVYDKNGKIVKIELSAGG [r13_358_TrROS_Hall] , is the recorded folding stability dG unfold at or above 2 kcal/mol?
Response line: true

Prompt line: In plain terms: is recorded folding stability dG unfold at least 2 kcal/mol for SAGGSAGGSAGPGLSITTTITTTTPAKLPNGTAPLRTTTTTIITELKPADPNNPVILANTSAGGSAGGSAGG [r11_236_JUSTAS] ?
Response line: false

Prompt line: API: above_or_equal(metric=folding stability dG unfold, cutoff=2 kcal/mol) for item SAGGSAMQQLDITKTKWDPNTGTLSVTAKDPLTGEVTTYTIPRNGPTLNFPPGAELKSVETEPPPLSAGGSA [r15_959_JUSTAS]
Response line: false

Prompt line: Has SALKISVTVDPDGPTATATLELYNPETGKPTTLTATIHRLPDGSYLVTIHFPSNNKTITFTVPEDGVITLSA [r9_1220_TrMRF] a recorded folding stability dG unfold greater than or equal to 2 kcal/mol?
Response line: true

Prompt line: Dear colleague, could you confirm whether SKTYLVKVTIEYGGKTIEIEVEVETLEEALAAVRAALPPEERAQLPPDAKVTVEVYELPEVDEETGELLESA [r9_111_TrROS_Hall] has folding stability dG unfold at or above 2 kcal/mol?
Response line: true

Prompt line: Textbook exercise: given the entry SAGGKITIEIEEEDGYLVIRIREEKEVYDEETGELKKEEKEITIVLPLEEAKKLAEELNLEIEIVEPSAGGS [r8_337_TrROS_Hall] , state whether its folding stability dG unfold is greater than or equal to 2 kcal/mol.
Response line: true

Prompt line: Textbook exercise: given the entry SAGGSAGGSMPTSSSSSLSSEAEVEALIEELKKKGAKEFTVDPGPGALTLTITYDDSTLTISSSAGGSAGGS [r12_846_JUSTAS] , state whether its folding stability dG unfold is greater than or equal to 2 kcal/mol.
Response line: false

###

Consider the following sequences and their measured folding stability dG unfold readings.
Assay: folding stability dG unfold from trypsin proteolysis; higher = more stable

Observe how each entry below is paired with its result.
SAGGGYRAVAVFERPDGRREVVFIEFESEEEALREAEEIARRFGLRLKELRVYPVEPLPPVRPELAGSAGGS [r8_364_TrMRF]: 3.49 kcal/mol
SAGGMIKVEVEPLEDGVLRVRVYVPHPDGPPIEIEVVFPPEVGSLEEALEKAVEVVEEFLKKHNIPLSAGGS [r8_464_TrMRF]: 2.25 kcal/mol

Prompt line: So what does the record say about folding stability dG unfold for SEKPLVTLELELVVETEEQARAAVEALLAALPEEEIVDIRVEVEEVDVFENGELVGRRRRVRVTIVVRRPSA [r9_605_TrROS_Hall] ?
Response line: 4.31 kcal/mol

###

Assay: folding stability dG unfold (combined trypsin and chymotrypsin); higher = more stable
MEASURED PROPERTY: folding stability dG unfold (kcal/mol)
Please give a number only; it is taken to be in kcal/mol.

SAGGSAGGSGEELRNLLANVKKVTVFPNADGGLGVLIELEPEEPEERTIVLNYDQLAELLALGSAGGSAGGS [r12_466_TrMRF]: 0.936
SAGGSASGYYTTTTVEIEPEGDTLTTVTTTTLGVPVTFDPVNNTLTLNLPPDQSLVTTTTVTEVAASAGGSA [r15_1040_JUSTAS]: 0.976
SAGGSAIKIIPNGDGIYIKIWFNNQPHPIPIESPEDAEEQVKSILDKFQKRNGMDIPEDMKVEIYPSAGGSA [r15_496_TrROS]: 0.994
SAMKLVTLEDGTVIETENLSLEEIKERFGGGSISVSDVPPSPAFRVESEEEREALEKEVGPGFVVVEEGSAG [r14_445_JUSTAS]: 0.414
SAGGDPLVLEFDGVTVVYDPKTKTLVVFAPSSEVERLVKALGPKFEPLEIFELEDGSVVMLVRIKPESAGGS [r8_415_TrMRF]: 4.35

Query sequence follows.
Prompt line: May I ask what folding stability dG unfold has been recorded for SAGGSAGGSAGGSMKSVPVITTTTTVLPNGTTVTTTTVNNVTSSGTTSSTTTTVTPSLLSAGGSAGGSAGGS [r4_486_JUSTAS] ?
Response line: -0.836

Sourced from the supplement of paper PMC12764529
